METHOD_SUMMARY: growth modulation of vineyard yeast isolate – strain RM11-1a, OD600, basal, 24 h, primary screen (AID 1177);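 note: cultures grown under basal conditions with no added stressor; test concentration not given here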
COND: S. cerevisiae RM11-1a growth, OD600, 24 h; higher = more signal, called active from +8 up or from −8 down
# binarize z-score: threshold -0.03 inclusive, high side fulfilled, low side not fulfilled

C=CCN1Cc2ccccc2[C@@H]2OC(c3ccc(OCCCO)cc3)=N[C@]2(CC=C)C1=O    not fulfilled
COc1cc2c(cc1O)C=[N+](Cc1sc3ccccc3c1Cl)CC2    not fulfilled
CC(C)=C1C(=O)C(c2ccccc2)=C2CN3C(=O)N(CCc4ccccc4)C(=O)[C@]3(Cc3ccc(C(F)(F)F)cc3)[C@H]21    fulfilled
CC1CC/C=C\[C@H]2OC34C=CCN(Cc5ccccc5)C(=O)[C@H]3N(C(CO)C(C)C)C(=O)[C@@H]4C2C(=O)O1 (stereo partly drawn)    fulfilled
COc1ccc(C#Cc2ccc3c(c2)[C@]2(C(=O)N3)[C@H](c3ccc(OCCO)cc3)N3[C@H](c4ccccc4)[C@H](c4ccccc4)OC(=O)[C@H]3[C@@H]2C(=O)NC[C@H](O)c2ccccc2)cc1    fulfilled
C=CCOC(=O)[C@@]1(Cc2ccccc2)C[C@H]2CO[C@H](c3ccc(OC)cc3)N2C1=O    not fulfilled

Challenge: Reported z-score reaches at least -0.03 for Cn1cccc1C(O)C1C=CC2C(=O)N(c3ccccc3)C(=O)C2N1Nc1ccccc1 (stereo not drawn) ?
Response given: not fulfilled

Challenge: Reported z-score reaches at least -0.03 for CC(C)C(O)C1C=CC2C(=O)N(c3ccccc3)C(=O)C2N1Nc1ccccc1 (stereo not drawn) ?
Response given: fulfilled

###

METHOD_SUMMARY: blockers of DNA damage checkpoint Chk1 activation – imaging, HeLa, hydroxyurea, phospho-Chk1 nuclear intensity, primary screen (AID 1187); note: test concentration not given here
COND: hydroxyurea-induced phospho-Chk1 immunofluorescence imaging, higher = more signal
Calls of active or inactive are those of the source. No rule for the calls is given here.
RESULT_TYPE: z-score

Some solved entries appear below for comparison.
CC(c1ccccc1)C(O)C1C=CC2C(=O)N(C)C(=O)C2N1Nc1ccccc1 (configuration not stated)    -0.484 (inactive)
CCOC(=O)C1=CC[C@@H](c2ccccc2F)N(S(=O)(=O)c2ccc(C)cc2)[C@H]1c1ccccc1    -0.82 (inactive)
CCCC[C@@H](O)C1=C(COC)C[C@H]2C(=O)N(Cc3ccccc3)C(=O)[C@H]2[C@H]1CO    0.274 (inactive)
C=CCNC(=O)[C@@H]1[C@H]2C(=O)O[C@H](c3ccccc3)[C@H](c3ccccc3)N2[C@H](c2ccccc2OCCO)[C@@]12C(=O)Nc1ccc(C#CCCO)cc12    -0.262 (inactive)

Please look at the items below and tell me z-score for each one, in order.
1. CC(C)C[C@@H]1NC(=O)[C@@H]2C[C@H](C(=O)NCCCCCCN)[C@H](c3cccc(OCCO)c3)N2C1=O
2. CCCN1C(=O)[C@]2(Cc3ccccc31)N=C(c1ccc(OCCCO)cc1)O[C@@H]2c1ccccc1
3. COc1ccc(CCNC(=O)[C@@]2(c3ccc([N+](=O)[O-])cc3)CC(=O)N(C3CCCCC3)[C@@H]2c2ccc(CO)cc2)cc1
4. CCOC(=O)C=Cc1cccc(C)c1O
5. CC(C)[Si](C#C[Si](C(C)C)(C(C)C)C(C)C)(O[C@H](c1ccccc1)c1cn(Cc2ccccc2)nn1)C(C)C
6. O=C1C2C=CC(C(O)c3ccco3)N(Nc3ccccc3F)C2C(=O)N1c1ccccc1 (configuration not stated)
7. COC(=O)C/C=C/C[C@]1(O)C(=O)N(C)c2ccccc21

Response given:
-0.207 (inactive)
0.825 (inactive)
0.0527 (inactive)
0.0058 (inactive)
-0.216 (inactive)
0.257 (inactive)
-0.467 (inactive)
